test.name: NCI Yeast Anticancer Drug Screen. Data for the mec2-1 strain (AID 157)
measurement.context: S. cerevisiae mec2-1 strain, at 50.0 µM
The panel holds about 79,000 compounds, 15% with a hit somewhere; the sample as a whole holds those more often. The source made the active and inactive calls. Cut-off read from the data, not from the text of the source: active = growth inhibition above about 70%; inactive = the rest.
Possible outcomes: label 1 (active), label 0 (inactive)

1. CCN(CC)CCOC(=O)c1ccc(NC(=O)Nc2ccc(Br)cc2)cc1 ... label 0
2. O=C(CCl)OCCN(CCOC(=O)CCl)Cc1coc2ccccc2c1=O ... label 0
3. C=C1C2CCC3(CCC4C5(C)CCCC4(CN(C(C)=O)C5)C3C2)C1O (stereo not drawn) ... label 0
4. CC(=O)OCCSc1ccc(Cl)cc1 ... label 0
5. C1=C(c2ccccc2)CC(c2ccc(-c3ccccc3)cc2)=C1 ... label 0
6. CCc1cc2ccccc2oc1=O ... label 0
7. CCC(C)C(C)(CO)CO (stereo not drawn) ... label 0
8. CCOC(=O)[C@H](Cc1ccccc1)NC(=O)c1nc[nH]c1[N+](=O)[O-] ... label 0
9. Nc1nc(N)c2nc3c(nc2n1)C(=O)N(c1ccc(C(=O)O)cc1)C3 ... label 0
10. CC(OC(C)C(N)=O)C(N)=O (stereo not drawn) ... label 0
11. NC(=O)C(CO)NC(=O)c1ccc[n+](Cc2ccccc2)c1 (stereo not drawn) ... label 0
12. N#CNC(=Nc1ccccc1)[N](C#N)[Sn]([c]1ccccc1)([c]1ccccc1)[c]1ccccc1 ... label 1
13. C=C1C(=O)OC2CCC(O)C12 (stereo not drawn) ... label 0
14. NC(=O)N/N=C/C1CCc2ccccc2C1 (stereo not drawn) ... label 0
15. OCCNc1ncnc2ccccc12 ... label 0
16. CCOc1ncc(C(O)c2ccc(F)cc2)c(OCC)n1 (stereo not drawn) ... label 0
17. O=c1c2c(nc3n1CCC3)sc1c(O)c(Br)ccc12 ... label 0
18. N#CC(C#N)=Cc1cccc(Oc2ccccc2)c1 ... label 0
